Entries and their measured polymerase ribozyme fitness (log ratio) follow.
B1: TPR 5TU (parent)
chain: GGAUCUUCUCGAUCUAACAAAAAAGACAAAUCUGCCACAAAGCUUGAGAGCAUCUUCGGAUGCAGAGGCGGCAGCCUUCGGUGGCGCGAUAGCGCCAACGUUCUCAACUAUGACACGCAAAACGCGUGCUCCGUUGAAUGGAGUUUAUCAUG

Variants of: B1
assay.remarks: polymerase ribozyme fitness, log enrichment relative to wild type (log ratio); higher = more active; in vitro selection for triplet polymerase activity
Fewer inactive variants are shown than the library holds.
Answer using only a numeral; do not append any unit.

mutation.code | polymerase ribozyme fitness (log ratio)
C57U G81C A106U | -1.74

Inquiry: Supply reported polymerase ribozyme fitness (log ratio) belonging to this variant: A26U G84A C118A
Reply text: -3.09

Inquiry: Look up polymerase ribozyme fitness (log ratio) of U15C C87U A142U and report it.
Reply text: -0.702

Inquiry: Assign polymerase ribozyme fitness (log ratio) to the following record: G83C A147U
Reply text: 0.501

Inquiry: Using the record for C18G G80U C116U , state its measured polymerase ribozyme fitness (log ratio).
Reply text: -1.62

Inquiry: Annotate the variant C76A U82G with its measured polymerase ribozyme fitness (log ratio).
Reply text: -1.94

The values you see were collected from the RNAGym collection of RNA variant scans (doi:10.1073/pnas.2313332121).
